Target: T1, EsCas13d, nuclease-dead (Eubacterium siraeum, UniProt B0MS50, R295A;H300A;R849A;H854A)
T1 sequence: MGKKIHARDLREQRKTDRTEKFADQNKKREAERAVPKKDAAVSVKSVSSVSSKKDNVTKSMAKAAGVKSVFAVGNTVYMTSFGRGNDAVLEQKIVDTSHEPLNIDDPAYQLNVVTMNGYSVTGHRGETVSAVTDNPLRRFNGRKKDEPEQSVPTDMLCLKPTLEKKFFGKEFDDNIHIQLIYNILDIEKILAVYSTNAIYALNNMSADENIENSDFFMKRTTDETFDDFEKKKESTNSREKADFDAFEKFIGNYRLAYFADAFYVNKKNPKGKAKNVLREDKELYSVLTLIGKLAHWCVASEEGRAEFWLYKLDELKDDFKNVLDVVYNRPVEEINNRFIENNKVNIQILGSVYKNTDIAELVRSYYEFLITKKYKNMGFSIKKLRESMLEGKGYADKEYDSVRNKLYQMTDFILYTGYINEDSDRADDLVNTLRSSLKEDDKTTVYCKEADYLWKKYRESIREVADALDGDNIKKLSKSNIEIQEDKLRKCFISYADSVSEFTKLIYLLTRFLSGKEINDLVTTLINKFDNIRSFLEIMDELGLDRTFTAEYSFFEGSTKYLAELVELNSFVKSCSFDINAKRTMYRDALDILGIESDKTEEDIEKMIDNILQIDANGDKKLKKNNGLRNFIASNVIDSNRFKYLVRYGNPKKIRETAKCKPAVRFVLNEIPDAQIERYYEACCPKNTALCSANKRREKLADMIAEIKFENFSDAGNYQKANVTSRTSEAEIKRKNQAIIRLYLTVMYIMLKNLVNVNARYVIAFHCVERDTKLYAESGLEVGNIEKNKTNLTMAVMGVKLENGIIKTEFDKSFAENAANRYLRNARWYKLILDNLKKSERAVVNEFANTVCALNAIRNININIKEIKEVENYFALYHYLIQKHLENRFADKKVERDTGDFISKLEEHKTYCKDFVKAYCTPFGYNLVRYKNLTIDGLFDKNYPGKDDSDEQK
Experiment: crRNA (strand 1, pre-loaded); Mg2+; 40 mM Tris-HCl pH 7.5, 150 mM NaCl, 6 mM MgCl2, 1 mM DTT, 0.1% Tween-20, 0.2 mg/ml BSA; 25 C; 10 min per concentration, then washed
Details: tags: His6-TwinStrep-SUMO cleaved; N-terminal SNAP kept (SNAP-Surface 488); label: 3' end held by stalled T7 RNA polymerase
pKd: −log10 of the molar value.
// reported pKd per item
recorded metric: pKd

binder	experimental value
target 1 insG 3' of 16,insU 3' of 14 (mixed) RNA 1: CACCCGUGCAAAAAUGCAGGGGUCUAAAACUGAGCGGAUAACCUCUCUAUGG RNA 2: GGGAAUGGAUCCACAUCUACGAAUUCGUACCAUAGAGGAUGGUUAUCCGCUCACCGAGAUCGGAAGAGCACACGU	7.60
target 1 A16G,C22A (mixed) RNA 1: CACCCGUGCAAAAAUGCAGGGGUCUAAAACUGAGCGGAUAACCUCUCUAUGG RNA 2: GGGAAUGGAUCCACAUCUACGAAUUCGUAACAUAGGGAGGUUAUCCGCUCACCGAGAUCGGAAGAGCACACGU	7.29
